Biological target: T1, recombinant human CD73 (SEQ ID NO:70) (human, UniProt P21589 27-549)
T1 construct: Soluble recombinant protein in normal SPR running buffer (open conformation), the soluble enzyme assay and HDX-MS; SPR stock bought from BPS Bioscience; also called rhuCD73; CD73 in the open conformation
T1 sequence: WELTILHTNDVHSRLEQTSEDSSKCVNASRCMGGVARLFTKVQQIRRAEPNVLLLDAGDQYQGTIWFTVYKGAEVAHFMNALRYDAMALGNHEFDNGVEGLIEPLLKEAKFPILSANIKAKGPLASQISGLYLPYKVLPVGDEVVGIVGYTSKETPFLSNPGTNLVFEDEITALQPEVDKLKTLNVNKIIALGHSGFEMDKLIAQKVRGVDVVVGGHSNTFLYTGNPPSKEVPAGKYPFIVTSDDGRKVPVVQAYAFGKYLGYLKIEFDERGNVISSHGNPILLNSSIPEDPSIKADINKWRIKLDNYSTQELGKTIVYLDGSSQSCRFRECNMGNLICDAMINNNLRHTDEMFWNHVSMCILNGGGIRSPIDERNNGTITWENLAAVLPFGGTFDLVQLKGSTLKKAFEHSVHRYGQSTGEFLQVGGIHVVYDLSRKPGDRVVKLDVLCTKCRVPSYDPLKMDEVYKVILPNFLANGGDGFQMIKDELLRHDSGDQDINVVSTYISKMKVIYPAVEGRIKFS
Assay: SPR (Biacore 8K), antibody captured on anti-human Fc, CD73 as analyte, open conformation
reported-property: kon (M⁻¹ s⁻¹)
Write it as a number; the unit M⁻¹ s⁻¹ goes unstated.

Value lookup for kon; key = CL25_hu_11-6 (antibody, V domains shown, Humanized CL25 antibody) VH: QVQLVQSGAEVKKPGASVKVSCKASGYTFTSYGLSWVRQATGQGLEWMGEIYPGSGNTYYNEKFKGRVTMTANTSISTAYMELSSLRSEDTAVYYCARYDYLGSSYGFDYWGAGTTVTVSS VL: AIRMTQSPSSFSASTGDRVTITCKASQDVSTAVAWYQQKPGKAPKLLIYSASYRYSGVPSRFSGSGSGTDFTLTISCLQSEDFATYYCQQHYNTPYTFGGGTKLEIK 550000

Where do the numbers come from? From patent US20210230294A1.
